- Target System: PRMT5/MEP50 protein complex (Homo sapiens (Human))
- Sequence (O14744 other isoform, or with tags, fused parts or gaps): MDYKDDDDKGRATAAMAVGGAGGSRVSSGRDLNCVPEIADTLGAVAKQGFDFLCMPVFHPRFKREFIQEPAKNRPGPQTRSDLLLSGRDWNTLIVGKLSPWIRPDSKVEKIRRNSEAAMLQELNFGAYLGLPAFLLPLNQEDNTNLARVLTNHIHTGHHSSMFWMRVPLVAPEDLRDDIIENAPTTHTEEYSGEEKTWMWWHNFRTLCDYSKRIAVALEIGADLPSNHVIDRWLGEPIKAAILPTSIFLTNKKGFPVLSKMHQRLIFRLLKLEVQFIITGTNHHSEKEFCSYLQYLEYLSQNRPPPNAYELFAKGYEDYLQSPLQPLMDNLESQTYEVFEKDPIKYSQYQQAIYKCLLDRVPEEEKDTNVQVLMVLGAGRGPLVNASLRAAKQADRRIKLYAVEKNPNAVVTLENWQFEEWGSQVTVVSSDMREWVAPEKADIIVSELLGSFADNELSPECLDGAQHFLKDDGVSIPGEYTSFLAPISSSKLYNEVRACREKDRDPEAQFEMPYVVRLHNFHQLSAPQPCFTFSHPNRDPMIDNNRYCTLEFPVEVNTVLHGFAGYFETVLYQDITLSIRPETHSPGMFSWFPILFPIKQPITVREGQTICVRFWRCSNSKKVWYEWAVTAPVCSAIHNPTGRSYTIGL
- Sequence (Q9BQA1 whole entry partner): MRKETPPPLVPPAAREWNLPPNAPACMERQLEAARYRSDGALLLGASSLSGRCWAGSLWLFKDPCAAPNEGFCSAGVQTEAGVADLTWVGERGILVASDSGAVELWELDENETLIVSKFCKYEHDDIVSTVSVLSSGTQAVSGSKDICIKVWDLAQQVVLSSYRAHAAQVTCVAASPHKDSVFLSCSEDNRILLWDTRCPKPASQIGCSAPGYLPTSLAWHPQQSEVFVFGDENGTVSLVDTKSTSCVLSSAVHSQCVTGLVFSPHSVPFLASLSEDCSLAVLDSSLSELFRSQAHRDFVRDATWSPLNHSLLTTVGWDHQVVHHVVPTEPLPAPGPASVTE
- Test Method Notes: PRMT5 biochemical assay (3H-SAM methylation of H4(1-21) peptide, filter plate scintillation)
- Details: 10 nM PRMT5/MEP50 complex, 200 nM H4(1-21) peptide, 1 uM SAM, 25 minute incubation at room temperature
Could you please mark condition met for values of IC50 below 6 nM and condition not met for values at or above it?

- Compound: "Cc1ncc2c(F)cn([C@@H]3C[C@H](Oc4cc(C#N)cc5c4CNCC5)[C@@H](O)[C@H]3O)c2n1 [Example 173]"
  Class Assignment: "condition met"
- Compound: "Cc1ncnc2c1ccn2[C@@H]1C[C@H]([C@H](O)c2cccc(Cl)c2)[C@@H](O)[C@H]1O [Example 7]"
  Class Assignment: "condition not met"
- Compound: "Nc1ncnc2c1c(F)cn2[C@@H]1C[C@H](Oc2cc(F)c(F)c3c2CNCC3)[C@@H](O)[C@H]1O [Example 103]"
  Class Assignment: "condition met"

Ask: Regarding Cc1ncnc2c1ccn2[C@@H]1C[C@H](Oc2ccc(F)c(F)c2CN)[C@@H](O)[C@H]1O [Example 145] , kindly confirm whether its IC50 is beneath 6 nM.
Reply: condition not met

Ask: Regarding Cc1ncnc2c1ccn2[C@H]1C[C@@H](Oc2ccc(F)cc2CN)[C@H](O)[C@@H]1O [Example 67] , kindly confirm whether its IC50 is beneath 6 nM.
Reply: condition not met

Ask: Regarding Cc1ncnc2c1ccn2[C@@H]1C[C@H]([C@@H](O)c2cccc3c2CNCC3)[C@@H](O)[C@H]1O [Example 57] , kindly confirm whether its IC50 is beneath 6 nM.
Reply: condition not met

Ask: Regarding Cc1ncnc2c1ccn2[C@@H]1C[C@H](Oc2cccc3c2CCNC3)[C@@H](O)[C@H]1O [Example 80] , kindly confirm whether its IC50 is beneath 6 nM.
Reply: condition not met

Ask: Regarding Nc1ncnc2c1c(Cl)cn2[C@@H]1C[C@H](Oc2cc(F)c(F)c3c2CNCC3)[C@@H](O)[C@H]1O [Example 128] , kindly confirm whether its IC50 is beneath 6 nM.
Reply: condition met
